# System under test: human 11b-hsd-1 (Homo sapiens, UniProt P28845)
# Sequence (P28845 whole entry): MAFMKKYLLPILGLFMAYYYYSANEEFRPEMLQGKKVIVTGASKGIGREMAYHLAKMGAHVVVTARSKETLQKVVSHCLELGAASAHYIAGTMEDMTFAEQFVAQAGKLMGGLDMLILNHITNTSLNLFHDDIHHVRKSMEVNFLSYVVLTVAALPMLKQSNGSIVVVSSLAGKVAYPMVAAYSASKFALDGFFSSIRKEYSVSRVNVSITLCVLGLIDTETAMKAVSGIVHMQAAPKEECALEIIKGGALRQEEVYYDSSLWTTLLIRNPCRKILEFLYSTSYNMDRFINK
# Experimental protocol: Inhibition constant Ki of human 11b-hsd-1 (3H-cortisone to 3H-cortisol conversion, HPLC)
# Format: biochemical
# Measurement context: compound at 0.1 μM
The threshold is inclusive: inhibition at 0.1 µM of exactly 90% counts as Criterion met; values below receive Criterion not met.

Example cases with answers are listed next.
NC(=O)CN1CCC[C@@H]1C(=O)NC1C2CC3CC(C2)CC1C3 (stereo partly drawn); Criterion not met
O=C(NC1C2CC3CC(C2)CC1C3)[C@H]1CCCN1CC1CCOC1 (stereo partly drawn); Criterion met
CCOc1ccccc1CNC(=O)[C@H]1CCCN1CC1CCCC1; Criterion met
CC(C)N1CCC(CN2C[C@H](O)C[C@@H]2C(=O)NC2C3CC4CC(C3)CC2C4)CC1 (stereo partly drawn); Criterion not met

Please check the record O=C(NC12CC3CC(CC(C3)C1)C2)[C@H]1CCCN1CC1CCCCC1 and state if its inhibition at 0.1 µM is at or above 90%.
Criterion met

---

Kindly state inhibition at 0.1 µM for each of the entries shown.
# System under test: human 11b-hsd-1 (Homo sapiens)
# Experimental protocol: Inhibition constant Ki of human 11b-hsd-1 (3H-cortisone to 3H-cortisol conversion, HPLC)
# Format: biochemical
# Measurement context: compound at 0.1 μM
Answers are plain numbers, in %.

Known results for molecules:
O=C(NC12CC3CC(CC(C3)C1)C2)[C@H]1CCCN1CC(F)(F)F; 100
CC(C)CN1CCC[C@@H]1C(=O)NC1CCC(F)(F)CC1; 100
O=C(NC1C2CC3CC(C2)CC1C3)[C@H]1CCCN1CCN1CCCC1 (stereo partly shown); 92

Now let's try a different one.
# lookup: inhibition at 0.1 µM of CCCCN1CCC[C@@H]1C(=O)NC1CCCCC1
100

---

Would you kindly list inhibition at 0.1 µM for each of these compounds?
# System under test: human 11b-hsd-1 (Homo sapiens)
# Experimental protocol: Inhibition constant Ki of human 11b-hsd-1 (3H-cortisone to 3H-cortisol conversion, HPLC)
# Format: biochemical
# Measurement context: compound at 0.1 μM
Give bare numbers, in %.

Here are 3 compounds together with their reported answers.
CC(C)(C)OC(=O)N1CCC[C@H]1CN1CCC[C@@H]1C(=O)NC1C2CC3CC(C2)CC1C3 (stereo partly shown); 81
CCN1CCC[C@H](C(=O)NC2C3CC4CC(C3)CC2C4)C1 (stereo partly shown); 100
O=C(NC12CC3CC(CC(C3)C1)C2)C1COCCN1CC1CCCCC1 (stereo not shown); 100

Look up inhibition at 0.1 µM for the entries below, preserving their order.
1. N#Cc1ccc(CN2CCCC(C(=O)NC3C4CC5CC(C4)CC3C5)C2)cc1 (stereo not shown)
2. CC(C)CN1CCC[C@@H]1C(=O)NC1CCCCC1
3. CNCCN1CCC[C@@H]1C(=O)NC1C2CC3CC(C2)CC1C3 (stereo partly shown)
4. O=C(NC1CCCCC1)[C@H]1C[C@@H](O)CN1Cc1ccc(F)cc1
5. CC(C)CN1CCOC[C@@H]1C(=O)NCc1ccccc1F
6. CCCN1CCC[C@@H]1C(=O)NC1CCCCCC1

1. 100
2. 100
3. 96
4. 53
5. 81
6. 100

---

I'd appreciate it if you could supply Ki values for the items below.
# System under test: human 11b-hsd-1 (Homo sapiens)
# Experimental protocol: Inhibition constant Ki of human 11b-hsd-1 (3H-cortisone to 3H-cortisol conversion, HPLC)
# Assay type: biochemical
# Measurement context: apparent Ki; read-out: Ki app

Go through the list and state Ki for each entry.
1. O=C(NCc1ccc(F)cc1F)[C@H]1CCCN1Cc1ccccc1
2. COc1ccccc1CNC(=O)[C@H]1CCCN1Cc1cccc(Cl)c1
3. Cc1ccc(O[C@@H]2CN[C@H](C(=O)NC3C4CC5CC(C4)CC3C5)C2)cn1 (stereo partly shown)
4. COc1ccccc1CNC(=O)[C@H]1CCCN1Cc1ccc(C#N)cc1
5. O=C(NC1C2CC3CC(C2)CC1C3)[C@@H]1C[C@H](Oc2ccccc2Cl)CN1 (stereo partly shown)
6. CC(C)CN1CCOC[C@@H]1C(=O)NCc1ccccc1
7. CC(C)CN1CCC[C@@H]1C(=O)NCc1ccccn1
8. O=C(N[C@H]1c2ccccc2C[C@H]1O)[C@H]1COCCN1CC1CCCC1

66 nM
57 nM
6.3 nM
47 nM
1.4 nM
49.2 nM
168 nM
29.5 nM

Please state Ki for every molecule in the list that follows.
1. CC(C)CN1CC[C@H](O)[C@H]1C(=O)NC12CC3CC(CC(C3)C1)C2
2. O=C(NC1C2CC3CC(C2)CC1C3)[C@@H]1C[C@H](Oc2ccc(Cl)c(F)c2)CN1 (stereo partly shown)
3. CN(Cc1ccccc1Cl)C(=O)[C@H]1COCCN1CC1CCCC1

32 nM
1 nM
14 nM

Dear reader, for each entry below, please note its Ki.
1. O=C(NC12CC3CC(CC(C3)C1)C2)[C@H]1CCCN1Cc1ccccn1
2. Cc1ccccc1CNC(=O)[C@H]1CCCN1CCc1ccccc1

1. 5.9 nM
2. 35 nM
